All values here come from patent US11345673B2.

Kindly supply the reported log10 IC50 values for the records listed here.
# Tested on: hepatocarcinoma (HUH7.5) cells
# Assay Procedure: Proapoptotic effect by flow cytofluorometry, HUH7.5 cells
# Assay type: cell-based
# Condition Parameters: Homo sapiens, 24 hours incubation, three experiments in triplicate, read-out: IC50 ± S.D. (concentration required to cause 50% apoptosis), HUH7.5
All values: base-10 log of IC50 in nM.

// below: answered compounds
Consider CCCCCSc1ccc(C(=O)CCN2CCOCC2)cc1 [Compound 6] . Its measured log10 IC50 is 3.92

Consider CCCCCCSc1ccc(C(=O)CCN2CCCCC2)cc1 [Compound 10] . Its measured log10 IC50 is 3.26

Consider CCCCCCCSc1ccc(C(=O)CCN2CCOCC2)cc1 [Compound 8] . Its measured log10 IC50 is 2.80

Consider CCCCCSc1ccc(C(=O)CCN2CCCCC2)cc1 [Compound 9] . Its measured log10 IC50 is 3.24

Could you now look at the following compound, please?
Consider CCCCCCCc1ccc(C(=O)CCN2CCN(C)CC2)cc1 [Compound 26] . Its measured log10 IC50 is 2.98

* * *

# System: primary lymphocytic tumor cells taken from patients with chronic lymphatic leukemia (LLC)
# Assay Procedure: Proapoptotic effect by annexin V/propidium iodide flow cytofluorometry, LLC cells
# Format: cell-based
# Condition Parameters: Homo sapiens, 24 hours incubation, three experiments in triplicate, read-out: IC50 ± S.D. (concentration required to cause 50% apoptosis), LLC
Kindly supply the reported IC50 values for the records listed here.
Provide a numeric answer, followed by its unit.

Consider CCCCCC[Se]c1ccc(C(=O)CCN2CCOCC2)cc1 [Compound 16] . Its measured IC50 is 2.53 µM

Consider CCCCCSc1ccc(C(=O)CCN2CCCCC2)cc1 [Compound 9] . Its measured IC50 is 1.75 µM

Consider CCCCCCOc1ccc(C(=O)CCN2CCOCC2)cc1 [Compound 1] . Its measured IC50 is 1.61 µM

---
Consider CCCCCCSc1ccc(C(=O)CCN2CCOCC2)cc1 [Compound 7] . Its measured IC50 is 0.5 µM

* * *

Kindly supply the reported pIC50 values for the records listed here.
# Test system: hepatocarcinoma (HepG2) cells
# Assay Procedure: Proapoptotic effect by flow cytofluorometry, HepG2 cells
# Format: cell-based
# Condition Parameters: Homo sapiens, 24 hours incubation, three experiments in triplicate, read-out: IC50 ± S.D. (concentration required to cause 50% apoptosis), HepG2
Answers are plain numbers, as −log10 of the molar value.

Consider CCCCCCCOc1ccc(C(=O)CCN2CCCCC2)cc1 [Compound 4] . Its measured pIC50 is 5.52

Consider CCCCCSc1ccc(C(=O)CCN2CCCCC2)cc1 [Compound 9] . Its measured pIC50 is 5.78

Consider CCCCCCSc1ccc(C(=O)CCN2CCCCC2)cc1 [Compound 10] . Its measured pIC50 is 5.77

Answer for every listed entry: what is its pIC50? The entries follow.
1. CCCCCCCSc1ccc(C(=O)CCN2CCOCC2)cc1 [Compound 8]
2. CCCCCCSc1ccc(C(=O)CCN2CCN(C)CC2)cc1 [Compound 13]

OUT:
6.24
6.23

Consider CCCCCSc1ccc(C(=O)CCN2CCOCC2)cc1 [Compound 6] . Its measured pIC50 is 5.10
